# Test system: HEL
# Protocol description: The compound was tested for antiviral activity by measuring the concentration required to reduce plaque formation against Varicella zoster TK-(deficient) 07/1 strain
# Assay type: functional, cell-based
# Condition: Homo sapiens
Metric: pIC50
Quick note: pIC50 values are minus log10 of concentrations in mol/L.

The following compounds have reported results that may help.
* O=C1O/C(=C\Cn2cc(F)c(=O)[nH]c2=O)C(OCc2ccccc2)=C1OCc1ccccc1 | 5.46
* O=C1O/C(=C\Cn2cc(C(F)(F)F)c(=O)[nH]c2=O)C(OCc2ccccc2)=C1OCc1ccccc1 | 6.30

Prompt line: Request the reported pIC50 associated with O=C1O/C(=C\Cn2cnc3c(-n4cccc4)ncnc32)C(OCc2ccccc2)=C1OCc1ccccc1
Response line: 5.55
